Molecular target: AmpC (P99) (Enterobacter cloacae, UniProt P05364)
Sequence (P05364 21-381): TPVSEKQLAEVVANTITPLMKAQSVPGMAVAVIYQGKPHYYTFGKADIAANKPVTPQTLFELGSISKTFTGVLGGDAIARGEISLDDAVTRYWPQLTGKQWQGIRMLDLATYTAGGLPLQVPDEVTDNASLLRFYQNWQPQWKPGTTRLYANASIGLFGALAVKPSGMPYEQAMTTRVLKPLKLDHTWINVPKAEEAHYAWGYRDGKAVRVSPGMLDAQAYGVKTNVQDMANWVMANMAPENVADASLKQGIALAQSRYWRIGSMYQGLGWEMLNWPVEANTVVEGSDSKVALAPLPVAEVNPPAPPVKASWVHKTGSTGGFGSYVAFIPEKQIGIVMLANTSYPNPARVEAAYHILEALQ
Assay: β-lactamase inhibitory activity, determination of IC50 (nitrocefin hydrolysis)
pIC50: −log10 of the molar value.
The recorded pIC50 of each item maps onto one of these classes: class 1 (below 6), class 2 (6 to below 7), class 3 (7 or more)

Consider the worked cases shown below.
MOLECULE: Cn1cc(C2=CCN3CC2N(OS(=O)(=O)[O-])C3=O)ccc1=O.[Na+] (centres unmarked) [Example 8, sulfate]
SYSTEM: AmpC (P99) (Enterobacter cloacae, UniProt P05364)
LABEL_VALUE: class 1
//
MOLECULE: NCc1cnc(C2=CC3CN(C2)C(=O)N3OS(=O)(=O)O)s1 (centres unmarked)
SYSTEM: AmpC (P99) (Enterobacter cloacae, UniProt P05364)
LABEL_VALUE: class 3
//
MOLECULE: Cn1cc(C2=CCN3CC2N(OS(=O)(=O)[O-])C3=O)c(=O)n(C)c1=O.[Na+] (centres unmarked) [Example 23, sulfate]
SYSTEM: AmpC (P99) (Enterobacter cloacae, UniProt P05364)
LABEL_VALUE: class 2
//
MOLECULE: Cn1c(C2=CCN3CC2N(OS(=O)(=O)[O-])C3=O)cccc1=O.[Na+] (centres unmarked) [Example 18, sulfate]
SYSTEM: AmpC (P99) (Enterobacter cloacae, UniProt P05364)
LABEL_VALUE: class 2

Now let's try a different one.
Which pIC50 category applies to O=C1N2CC(c3ccccn3)=CC(C2)N1OS(=O)(=O)[O-].[Na+] (centres unmarked) here? class 3

* * *

Target: OXA-1 (Escherichia coli)
Construct: made in house; host or cells: E. coli
Assay: β-lactamase inhibitory activity, determination of IC50 (nitrocefin hydrolysis)
Assay type: biochemical
Settings: class (D); nitrocefin 200 μM, 30 min pre-incubation; read-out: IC50 β-lactamase OXA-1
The entries below are paired with their reported IC50.
Please reply with the bare figure in nM and do not write the unit itself.

COMPOUND: O=C1N2CC(c3cccnc3)=CC(C2)N1OS(=O)(=O)[O-].[Na+] (stereo not drawn)
REPORTED_MEASUREMENT: 1400
--
COMPOUND: O=C1N2CC=C(c3cscn3)C(C2)N1OS(=O)(=O)[O-].[Na+] (stereo not drawn) [Example 31, sulfate]
REPORTED_MEASUREMENT: 1100

Item: O=C1N2CC=C(c3cn[nH]c3)C(C2)N1OS(=O)(=O)[O-].[Na+] (stereo not drawn) [Example 1, sulfate] | IC50: 1400

* * *

Target: OXA-11 (Pseudomonas aeruginosa)
Construct: made in house; host or cells: E. coli
Sequence (Q06778 21-266): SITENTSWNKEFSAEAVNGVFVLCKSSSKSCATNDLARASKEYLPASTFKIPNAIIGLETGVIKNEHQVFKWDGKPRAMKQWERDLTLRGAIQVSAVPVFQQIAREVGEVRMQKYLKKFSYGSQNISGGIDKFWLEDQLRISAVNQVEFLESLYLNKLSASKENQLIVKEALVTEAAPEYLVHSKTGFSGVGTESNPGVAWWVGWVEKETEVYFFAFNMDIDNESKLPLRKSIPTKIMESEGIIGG
Assay: β-lactamase inhibitory activity, determination of IC50 (nitrocefin hydrolysis)
Type: biochemical
RESULT_TYPE: IC50

COMPOUND: Cn1ccc(C2=CCN3CC2N(OS(=O)(=O)[O-])C3=O)cc1=O.[Na+] (stereo not shown) [Example 13, sulfate]
IC50: 730 nM

IC50 reported for this compound Cn1cc(C2=CCN3CC2N(OS(=O)(=O)[O-])C3=O)ncc1=O.[Na+] (stereo not shown) [Example 14, sulfate] : 920 nM

// IC50 value for Cn1nc(C2=CCN3CC2N(OS(=O)(=O)[O-])C3=O)ccc1=O.[Na+] (stereo not shown) [Example 17, sulfate] : 1400 nM

# compound O=C1N2CC=C(c3cscn3)C(C2)N1OS(=O)(=O)[O-].[Na+] (stereo not shown) [Example 31, sulfate] ; its IC50 = 990 nM

* * *

System: K. pneumoniae 200047 (TEM-1, SHV-32, CTX-M-15, OXA-1)
Assay: MIC of compounds alone, broth microdilution
Format: cell-based
Settings: Klebsiella pneumoniae, read-out: MIC compounds of the invention alone
The reader will find reported MIC values listed item by item below.

These recorded examples may help you get a feel for the data.
COMPOUND: O=C1N2CC=C(c3cnco3)C(C2)N1OS(=O)(=O)[O-].[Na+] (stereo not drawn) [Example 3]
MIC: > 32 µg/mL
--
COMPOUND: O=C1N2CC=C(c3cnoc3)C(C2)N1OS(=O)(=O)[O-].[Na+] (stereo not drawn) [Example 5]
MIC: > 32 µg/mL

With those in mind, consider the next compound.
Lab book: MIC of Cn1ncc(C2=CCN3CC2N(OS(=O)(=O)[O-])C3=O)cc1=O.[Na+] (stereo not drawn) [Example 19] noted as > 32 µg/mL

* * *

Recorded pIC50 for the following compounds
Molecular target: CTX-M-15 (Escherichia coli)
Construct: made in house; host or cells: E. coli
Sequence (Q9EXV5 entry or part of it): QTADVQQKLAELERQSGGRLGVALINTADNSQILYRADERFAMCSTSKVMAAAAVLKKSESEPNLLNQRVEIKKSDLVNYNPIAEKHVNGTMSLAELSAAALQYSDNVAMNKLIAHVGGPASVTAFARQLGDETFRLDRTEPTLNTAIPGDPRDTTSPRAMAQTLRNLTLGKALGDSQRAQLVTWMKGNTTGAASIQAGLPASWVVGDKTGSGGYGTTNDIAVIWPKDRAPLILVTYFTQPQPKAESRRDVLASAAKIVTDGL
Assay: β-lactamase inhibitory activity, determination of IC50 (nitrocefin hydrolysis)
Type: biochemical
Settings: class (A); nitrocefin 200 μM, 30 min pre-incubation; read-out: IC50 β-lactamase CTX-M-15
Please treat pIC50 as minus the base-10 logarithm of the molar concentration.

Sample Cn1cc(C2=CCN3CC2N(OS(=O)(=O)[O-])C3=O)c(=O)n(C)c1=O.[Na+] (stereo not shown) [Example 23, sulfate] ; pIC50 observed: 7.92

// sample Cn1cc(C2=CCN3CC2N(OS(=O)(=O)[O-])C3=O)ccc1=O.[Na+] (stereo not shown) [Example 8, sulfate] , its pIC50 was 7.92

// sample O=C1N2CC(c3ncco3)=CC(C2)N1OS(=O)(=O)[O-].[Na+] (stereo not shown) [Example 25] , its pIC50 was 7.82

According to the records, this compound COc1ncc(C2=CCN3CC2N(OS(=O)(=O)[O-])C3=O)cn1.[Na+] (stereo not shown) [Example 24, sulfate] displays pIC50 of 7.85

* * *

Molecular target: KPC-2 (Klebsiella pneumoniae)
Construct: made in house; host or cells: E. coli
Sequence (Q9F663 25-293 limits assumed): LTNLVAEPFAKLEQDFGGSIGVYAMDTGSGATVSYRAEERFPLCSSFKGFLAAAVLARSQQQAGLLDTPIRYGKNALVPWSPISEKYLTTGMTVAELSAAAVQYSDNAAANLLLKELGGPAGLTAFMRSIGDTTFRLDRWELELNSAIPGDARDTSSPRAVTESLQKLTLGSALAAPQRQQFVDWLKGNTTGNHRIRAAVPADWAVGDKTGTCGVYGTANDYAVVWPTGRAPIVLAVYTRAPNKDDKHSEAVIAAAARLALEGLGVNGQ
Test: β-lactamase inhibitory activity, determination of IC50 (nitrocefin hydrolysis)
Type: biochemical
Settings: class (A); nitrocefin 200 μM, 30 min pre-incubation; read-out: IC50 β-lactamase KPC-2
Listed compounds paired with reported pIC50
Just the number, please; pIC50 means minus log10 of the concentration in mol/L.

Recorded pIC50, per entry:
COMPOUND: O=C1N2CC=C(c3cccnc3)C(C2)N1OS(=O)(=O)[O-].[Na+] (stereo not drawn)
pIC50: 7.17
--
COMPOUND: Cn1ccc(C2=CCN3CC2N(OS(=O)(=O)[O-])C3=O)cc1=O.[Na+] (stereo not drawn) [Example 13, sulfate]
pIC50: 7.20
--
COMPOUND: O=C1N2CC=C(c3cncnc3)C(C2)N1OS(=O)(=O)[O-].[Na+] (stereo not drawn) [Example 10, sulfate]
pIC50: 6.89
--
COMPOUND: Cn1cnc(C2=CCN3CC2N(OS(=O)(=O)[O-])C3=O)cc1=O.[Na+] (stereo not drawn) [Example 20, sulfate]
pIC50: 7.06

Let me check: O=C1N2CC=C(c3ccncc3)C(C2)N1OS(=O)(=O)[O-].[Na+] (stereo not drawn) , system KPC-2 (Klebsiella pneumoniae), measured pIC50 is 6.82

* * *

Target: OXA-1 (Escherichia coli, UniProt P13661)
Construct: made in house; host or cells: E. coli
Sequence (P13661 26-276): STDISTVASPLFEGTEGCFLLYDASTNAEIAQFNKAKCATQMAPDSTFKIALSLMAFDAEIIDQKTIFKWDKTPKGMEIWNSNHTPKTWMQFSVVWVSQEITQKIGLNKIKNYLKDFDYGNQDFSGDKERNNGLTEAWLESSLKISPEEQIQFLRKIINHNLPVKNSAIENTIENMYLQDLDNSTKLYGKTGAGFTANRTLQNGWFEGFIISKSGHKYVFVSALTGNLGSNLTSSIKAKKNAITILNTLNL
Assay: β-lactamase inhibitory activity, determination of IC50 (nitrocefin hydrolysis)
Assay type: biochemical
Conditions: class (D); nitrocefin 200 μM, 30 min pre-incubation; read-out: IC50 β-lactamase OXA-1
Measured pIC50 accompanies every entry in the list below.
// scale note: pIC50 = -log10(conc_M); give the bare number

COMPOUND: COC(=O)c1ncsc1C1=CCN2CC1N(OS(=O)(=O)[O-])C2=O.[Na+] (stereo not drawn) [Example 22]
SYSTEM: OXA-1 (Escherichia coli, UniProt P13661)
pIC50: 7.17
//
COMPOUND: Cn1cccc(C2=CCN3CC2N(OS(=O)(=O)[O-])C3=O)c1=O.[Na+] (stereo not drawn) [Example 16, sulfate]
SYSTEM: OXA-1 (Escherichia coli, UniProt P13661)
pIC50: 6.14
//
COMPOUND: O=C1N2CC=C(c3cnccn3)C(C2)N1OS(=O)(=O)[O-].[Na+] (stereo not drawn) [Example 12]
SYSTEM: OXA-1 (Escherichia coli, UniProt P13661)
pIC50: 6.46
//
COMPOUND: O=C1N2CC=C(c3cnoc3)C(C2)N1OS(=O)(=O)[O-].[Na+] (stereo not drawn) [Example 5, sulfate]
SYSTEM: OXA-1 (Escherichia coli, UniProt P13661)
pIC50: 6.35
//
COMPOUND: O=C1N2CC(c3cnco3)=CC(C2)N1OS(=O)(=O)[O-].[Na+] (stereo not drawn) [Example 35]
SYSTEM: OXA-1 (Escherichia coli, UniProt P13661)
pIC50: 5.85

Then there is this compound:
Reported pIC50 of NCc1ncc(C2=CCN3CC2N(OS(=O)(=O)O)C3=O)s1 (stereo not drawn) [Example 32] : 6.17

* * *

Target: SHV-1 (Klebsiella pneumoniae, UniProt P0AD64)
Construct: made in house; host or cells: E. coli
Sequence (P0AD64 22-286): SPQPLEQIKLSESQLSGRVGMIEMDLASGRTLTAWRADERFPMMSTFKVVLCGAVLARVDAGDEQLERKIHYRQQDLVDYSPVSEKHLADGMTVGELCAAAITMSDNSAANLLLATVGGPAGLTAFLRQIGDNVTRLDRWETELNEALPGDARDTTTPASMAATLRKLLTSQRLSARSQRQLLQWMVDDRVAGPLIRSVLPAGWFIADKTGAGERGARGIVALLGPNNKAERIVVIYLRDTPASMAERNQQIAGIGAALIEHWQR
Test: β-lactamase inhibitory activity, determination of IC50 (nitrocefin hydrolysis)
Type: biochemical
pIC50: −log10 of the molar value.
Binary classification by pIC50, with 8 as an inclusive lower bound for criterion met; all other cases are criterion not met.

COMPOUND: NCc1ncc(C2=CCN3CC2N(OS(=O)(=O)O)C3=O)s1 (centres unmarked) [Example 32]
SYSTEM: SHV-1 (Klebsiella pneumoniae, UniProt P0AD64)
LABEL_VALUE: criterion not met

Check if pIC50 >= 8 (inclusive). Item: O=C1N2CC(n3ccnc3)=CC(C2)N1OS(=O)(=O)[O-].[Na+] (centres unmarked) [Example 34] criterion not met

Does the reported pIC50 for O=C1N2CC=C(c3cnoc3)C(C2)N1OS(=O)(=O)[O-].[Na+] (centres unmarked) [Example 5, sulfate] fall at or above the 8 mark? criterion not met
